Tested on: P12-Ichikawa
assay name: cell viability relative to DMSO control; higher = less cytotoxic
experimental setup: RPMI 5 mM glucose + 10% FBS; 48 h; 46.1 µM
We begin with a simple list: items and their reported cell viability.
Hi, when you answer, please include the unit after the number. Thanks!

Below, each entry is followed by its recorded cell viability result.
[
  {
    "compound": "CC(C)(Sc1cc(C(C)(C)C)c(O)c(C(C)(C)C)c1)Sc1cc(C(C)(C)C)c(O)c(C(C)(C)C)c1",
    "system tested": "P12-Ichikawa",
    "cell viability": "92.8%"
  },
  {
    "compound": "CCCCN1CCC(CNC(=O)c2c3n(c4ccccc24)CCCO3)CC1",
    "system tested": "P12-Ichikawa",
    "cell viability": "68%"
  },
  {
    "compound": "OC1=C(Cl)C=C(N\\C2=C(\\C(=O)NC2=O)C3=C(C=CC=C3)[N+]([O-])=O)C=C1",
    "system tested": "P12-Ichikawa",
    "cell viability": "58.1%"
  },
  {
    "compound": "CN1CCC(CNc2ccc3ncc(-c4cccc(OC(F)(F)F)c4)n3n2)CC1",
    "system tested": "P12-Ichikawa",
    "cell viability": "4.48%"
  },
  {
    "compound": "NC[C@H](O)c1ccc(O)c(O)c1",
    "system tested": "P12-Ichikawa",
    "cell viability": "84.4%"
  },
  {
    "compound": "Cc1nc2ccc(CN(C)c3ccc(C(=O)N[C@@H](CCC(=O)O)C(=O)O)s3)cc2c(=O)[nH]1",
    "system tested": "P12-Ichikawa",
    "cell viability": "31.7%"
  },
  {
    "compound": "CC(C)[C@H](O)C(=O)N[C@@H](C)C(=O)N[C@@H]1C(=O)N(C)CCc2ccccc21",
    "system tested": "P12-Ichikawa",
    "cell viability": "105%"
  },
  {
    "compound": "CN(C)C(=O)[C@H](O)[C@H](Cc1ccccc1)NC(=O)c1cc2cc(Cl)ccc2[nH]1",
    "system tested": "P12-Ichikawa",
    "cell viability": "51.5%"
  },
  {
    "compound": "CN1CCN(CC1)C2=CC3=C([NH]C(=N3)C/4=C(\\N)C5=C(F)C=CC=C5NC4=O)C=C2",
    "system tested": "P12-Ichikawa",
    "cell viability": "30.4%"
  },
  {
    "compound": "COc1cc2cc(c1Cl)N(C)C(=O)C[C@H](OC(=O)C(C)C)[C@]1(C)O[C@@H]1[C@H](C)[C@@H]1C[C@@](O)(NC(=O)O1)[C@H](OC)/C=C/C=C(\\C)C2",
    "system tested": "P12-Ichikawa",
    "cell viability": "2%"
  }
]

Inquiry: Kindly state the measured cell viability obtained for "CCOC(=O)c1c(CSc2ccccc2)n(C)c2cc(Br)c(O)c(CN(C)C)c12" with P12-Ichikawa.
Reply text: 73.5%

Inquiry: Continue with "COc1ccc(-n2c(C)c([N+](=O)[O-])c3ccc(O)cc32)cc1"
Reply text: 105%

Inquiry: Continue with C#CCC(Cc1cnc2nc(N)nc(N)c2n1)c1ccc(C(=O)N[C@@H](CCC(=O)O)C(=O)O)cc1 (some centres undefined)
Reply text: 30.8%

Inquiry: Continue with "CCCCCN(C)CCC(O)(P(=O)([O-])O)P(=O)(O)O"
Reply text: 83.4%

Inquiry: Continue with "CCC(=O)N1CCN(CC1)C2=C(C=C(C=C2)N3C(=O)\C=C/C4=C3C5=CC(=CC=C5N=C4)C6=CN=C7C=CC=CC7=C6)C(F)(F)F"
Reply text: 49.8%

Inquiry: Continue with "CC[C@H](C)C(=O)O[C@H]1C[C@@H](C)\C=C2\C=C/[C@H](C)[C@H](CC[C@@H]3C[C@@H](O)CC(=O)O3)[C@@H]12"
Reply text: 24%
